- TARGET_UNDER_TEST: HLA-A*32:01
- PROCEDURE_TEXT: IEDB peptide-MHC binding, purified MHC/competitive/radioactivity; filed as Kd, often an IC50 or EC50 that approximates it; bounds were set here for any values at or beyond the usual limits of such assays
- TEST_CONDITIONS: source organism: Vaccinia virus WR
pKd: −log10 of the molar value.

SEQUENCE_RECORD | CENSORING_SIGN | pKd
ILFYFANGI | = | 7.03
ELRDYFEQI | ≤ | 4.11
AMFTAALNI | = | 6.91
KSLKKVYTF | = | 9.31
ASISSVLTI | = | 7.88
SQRFIFNII | = | 5.73
IMFAKTLDF | = | 8.17
MLMRVAVGI | = | 9.16
AIMFFPRTI | = | 8.95
RSMYRIPPF | = | 9.14
GTHYQNHGF | = | 8.22
